These entries and their values trace back to PubChem BioAssay.

Experiment: small-molecule microarray binders of probe aDKK1, primary screen, biochemical, biotinylated probe, 635/667 nm fluorescence (AID 1099);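 also: score merges 667nm spot fluorescence with signal to noise across triplicate slides; reference of the scale not given here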
Conditions: higher = more signal
Short version: composite z-score at least -0.07 is true, less is false.

Worked examples follow.
# Molecule, Category
data = [
    ("COc1cc2c(cc1O)C(C)N(Cc1ccc([N+](=O)[O-])o1)CC2 (stereo unspecified)", "true"),
    ("O=C1OCC=C[C@H]2OC34C=CCN(c5ccc(Cl)cc5)C(=O)[C@H]3N(CCO)C(=O)[C@@H]4[C@@H]12 (stereo partly specified)", "false"),
    ("COc1ccccc1CN1C(=O)c2ccccc2[C@@]2(Cc3ccccc3N(CC(F)(F)F)C2=O)[C@@H]1c1ccc(CO)cc1", "false"),
    ("C=C(COC)/C(=C/C[C@H](OC(C)=O)c1ccc(OCCO)cc1)c1cc(C(=O)OC)ccc1OC", "true"),
    ("CC(C)[Si](C#CCCCC#N)(O[C@H](c1ccccc1)c1cn([C@H](CO)Cc2ccccc2)nn1)C(C)C", "false"),
]

Qu. Has COC(=O)[C@@]1(Cc2ccccc2)[C@H]2c3cc(C(=O)N(C)C)n(CCN4CNCC4=O)c3C[C@H]2CN1C(=O)c1ccccc1 a recorded composite z-score greater than or equal to -0.07?
Ans. true

Qu. Has CC(C)C(=C=CC[C@H](O)c1cccc(OCCO)c1)C[C@H](O)c1cc(Cl)cc(Cl)c1O a recorded composite z-score greater than or equal to -0.07?
Ans. false

Qu. Has COc1ccc(CCNC(=O)[C@@H]2c3ccccc3C(=O)N(Cc3cc(C(F)(F)F)cc(C(F)(F)F)c3)[C@H]2c2ccc(CO)cc2)cc1 a recorded composite z-score greater than or equal to -0.07?
Ans. true

Qu. Has C=CCN1C(=O)[C@@]2(CCS(=O)(=O)c3ccccc3)N=C(c3ccc(OCCCO)cc3)O[C@H]2c2ccccc21 a recorded composite z-score greater than or equal to -0.07?
Ans. true

----------
Biological target: Epidermal growth factor receptor (Homo sapiens)
Assay: EGFR binders on small-molecule microarrays, primary screen, biochemical, small-molecule microarray, 635 nm fluorescence (AID 1104);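 also: score merges 667 nm emission intensity with spot signal to noise over triplicate slides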
Settings: EGFR binding, higher = more signal
Metric Name: composite z-score
One number for each entry.

Your task in this section: give composite z-score for each listed record.
1. CC(=O)NCCCC[C@@H]1NC(=O)[C@@H]2C[C@H](C(=O)NCCCC[N+](C)(C)C)[C@H](c3ccc(O)cc3)N2C1=O
2. COCCOC(=O)N1C(=O)[C@@]2(c3cc(C#CC4=CCCCC4)ccc31)[C@H](c1ccc(OCCO)cc1)N1[C@H](c3ccccc3)[C@H](c3ccccc3)OC(=O)[C@H]1[C@@H]2C(=O)N1CCN(c2ncccn2)CC1
3. COc1ccc(CN(C2=CC[C@@]3(C(N)=O)C(=O)C(Cl)=C(Cl)C(=O)[C@@]3(C#N)C2)S(=O)(=O)c2ccc(Br)cc2)cc1

Ans.
1: 0.753; 2: 0.494; 3: -0.733

----------
Experiment: binders of probe aHhip on microarray, primary screen, stem cell growth factor project, biochemical, small-molecule microarray, fluorescence 635/667 (AID 1087);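 also: score merges spot fluorescence at 667nm with spot signal to noise ratio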
Details: higher = more signal
Exercise: state measured composite z-score for each of the molecules provided.
One number for each entry.

Your task in this section: give composite z-score for each listed record.
1. C[C@H]1NC(=O)[C@@]23C(=O)N[C@@H](Cc4ccccc4)C2[C@H](C)[C@@]2(C)O[C@H]2C3/C=C/C/C=C\CNC(=O)[C@H](Cc2ccccc2)NC1=O (stereo partly specified)
2. CC(C)C(=C=CC[C@H](O)c1cccc(OCCO)c1)C[C@H](O)c1cc(Cl)cc(Cl)c1O
3. CCCNC(=O)[C@@H]1c2ccccc2C(=O)N(C(C)C)[C@H]1c1ccc(CO)cc1
4. COCCCNC(=O)[C@@]1(Cc2ccccc2CN=[N+]=[N-])N=C(c2ccc(OCCCO)cc2)O[C@H]1c1ccccc1
5. CN1C(=O)C2C=CC(C(O)c3cccc(O)c3)N(Nc3ccccc3)C2C1=O (stereo unspecified)
6. C=CC[C@]1(C(=O)O)COC(c2ccc(OCCCO)cc2)=N1
7. CCCC[C@@H]1C[C@H]1[C@@H](NC(=O)c1cccs1)c1ccc(C(F)(F)F)cc1

Ans.
1. -0.137
2. 0.0722
3. -0.271
4. 0.28
5. 0.0808
6. -0.249
7. 0.948
